TESTED SYSTEM: Mitogen-activated protein kinase 12 (Homo sapiens)
Sequence (P53778 whole entry): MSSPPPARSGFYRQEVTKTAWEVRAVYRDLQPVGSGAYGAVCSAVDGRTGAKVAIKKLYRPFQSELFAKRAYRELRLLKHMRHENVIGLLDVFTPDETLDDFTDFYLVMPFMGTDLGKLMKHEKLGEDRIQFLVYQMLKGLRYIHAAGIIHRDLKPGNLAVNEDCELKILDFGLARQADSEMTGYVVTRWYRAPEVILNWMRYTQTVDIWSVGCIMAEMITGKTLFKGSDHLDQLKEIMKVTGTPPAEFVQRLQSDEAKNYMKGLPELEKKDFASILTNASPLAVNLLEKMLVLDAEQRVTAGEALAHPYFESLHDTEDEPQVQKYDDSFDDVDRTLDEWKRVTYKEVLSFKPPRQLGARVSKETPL
ASSAY TEXT: Binding affinity to recombinant full-length N-terminal His-FLAG-GST-tagged MAPK12 (unknown origin) expressed in baculovirus infected Sf9 insect cells incubated for 1 hr by TR-FRET assay
Attribute: Kd
Number first, unit second.

CO[C@@H]1[C@H](NCCOCCOCCOCCNC(=O)CCC2=[N+]3C(=Cc4c(C)cc(C)n4[B-]3(F)F)C=C2)C[C@H]2O[C@]1(C)n1c3ccccc3c3c4c(c5c6ccccc6n2c5c31)C(=O)NC4; 0.948 µM

Consider the record given below.
Req: Entry "CO[C@@H]1[C@H](N(C)CCOCCOCCOCCNC(=O)CCC2=[N+]3C(=Cc4c(C)cc(C)n4[B-]3(F)F)C=C2)C[C@H]2O[C@]1(C)n1c3ccccc3c3c4c(c5c6ccccc6n2c5c31)C(=O)NC4" : reported Kd = ?
Resp: 1.02 µM

====

The compounds listed here are annotated with their pKd.
TESTED SYSTEM: Leukocyte tyrosine kinase receptor (Homo sapiens)
Sequence (P29376 whole entry, the tested form may be a part): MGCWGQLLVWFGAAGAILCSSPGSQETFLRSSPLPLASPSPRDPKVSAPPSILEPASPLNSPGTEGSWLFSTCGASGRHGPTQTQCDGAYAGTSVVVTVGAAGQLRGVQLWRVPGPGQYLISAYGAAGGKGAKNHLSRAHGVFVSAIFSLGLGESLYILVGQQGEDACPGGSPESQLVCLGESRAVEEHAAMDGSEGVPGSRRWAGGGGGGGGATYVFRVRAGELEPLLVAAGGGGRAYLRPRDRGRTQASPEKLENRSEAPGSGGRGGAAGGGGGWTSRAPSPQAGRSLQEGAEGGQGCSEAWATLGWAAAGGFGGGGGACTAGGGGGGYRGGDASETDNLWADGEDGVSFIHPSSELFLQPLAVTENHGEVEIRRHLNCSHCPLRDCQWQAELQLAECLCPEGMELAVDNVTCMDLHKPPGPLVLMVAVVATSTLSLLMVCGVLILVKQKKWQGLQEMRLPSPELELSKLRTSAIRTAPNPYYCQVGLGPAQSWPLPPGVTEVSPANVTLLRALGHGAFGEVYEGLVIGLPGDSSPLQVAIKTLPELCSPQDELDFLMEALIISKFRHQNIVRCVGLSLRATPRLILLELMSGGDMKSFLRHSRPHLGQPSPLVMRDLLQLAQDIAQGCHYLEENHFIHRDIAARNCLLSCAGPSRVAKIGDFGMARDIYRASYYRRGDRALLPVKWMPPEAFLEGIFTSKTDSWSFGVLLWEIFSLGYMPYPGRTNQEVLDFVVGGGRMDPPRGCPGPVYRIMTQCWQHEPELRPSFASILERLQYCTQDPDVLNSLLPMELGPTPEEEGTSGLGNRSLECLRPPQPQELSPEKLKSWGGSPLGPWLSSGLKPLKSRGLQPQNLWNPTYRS
ASSAY TEXT: Binding affinity to recombinant full-length N-terminal His-FLAG-GST-tagged LTK (unknown origin) (498 to 796 residues) expressed in baculovirus infected Sf9 insect cells incubated for 1 hr by TR-FRET assay
# pKd: negative log10 of molar concentration; output just the value

CO[C@@H]1[C@H](N(C)CCOCCOCCOCCNC(=O)CCC2=[N+]3C(=Cc4c(C)cc(C)n4[B-]3(F)F)C=C2)C[C@H]2O[C@]1(C)n1c3ccccc3c3c4c(c5c6ccccc6n2c5c31)C(=O)NC4; 6.71

# ---- query compound ----
Req: Would you mind telling me what pKd value was observed for "CO[C@@H]1[C@H](NCCOCCOCCOCCNC(=O)CCC2=[N+]3C(=Cc4c(C)cc(C)n4[B-]3(F)F)C=C2)C[C@H]2O[C@]1(C)n1c3ccccc3c3c4c(c5c6ccccc6n2c5c31)C(=O)NC4" ?
Resp: 6.71

====

TESTED SYSTEM: Citron Rho-interacting kinase (Homo sapiens, UniProt O14578)
Sequence (O14578 whole entry, the tested form may be a part): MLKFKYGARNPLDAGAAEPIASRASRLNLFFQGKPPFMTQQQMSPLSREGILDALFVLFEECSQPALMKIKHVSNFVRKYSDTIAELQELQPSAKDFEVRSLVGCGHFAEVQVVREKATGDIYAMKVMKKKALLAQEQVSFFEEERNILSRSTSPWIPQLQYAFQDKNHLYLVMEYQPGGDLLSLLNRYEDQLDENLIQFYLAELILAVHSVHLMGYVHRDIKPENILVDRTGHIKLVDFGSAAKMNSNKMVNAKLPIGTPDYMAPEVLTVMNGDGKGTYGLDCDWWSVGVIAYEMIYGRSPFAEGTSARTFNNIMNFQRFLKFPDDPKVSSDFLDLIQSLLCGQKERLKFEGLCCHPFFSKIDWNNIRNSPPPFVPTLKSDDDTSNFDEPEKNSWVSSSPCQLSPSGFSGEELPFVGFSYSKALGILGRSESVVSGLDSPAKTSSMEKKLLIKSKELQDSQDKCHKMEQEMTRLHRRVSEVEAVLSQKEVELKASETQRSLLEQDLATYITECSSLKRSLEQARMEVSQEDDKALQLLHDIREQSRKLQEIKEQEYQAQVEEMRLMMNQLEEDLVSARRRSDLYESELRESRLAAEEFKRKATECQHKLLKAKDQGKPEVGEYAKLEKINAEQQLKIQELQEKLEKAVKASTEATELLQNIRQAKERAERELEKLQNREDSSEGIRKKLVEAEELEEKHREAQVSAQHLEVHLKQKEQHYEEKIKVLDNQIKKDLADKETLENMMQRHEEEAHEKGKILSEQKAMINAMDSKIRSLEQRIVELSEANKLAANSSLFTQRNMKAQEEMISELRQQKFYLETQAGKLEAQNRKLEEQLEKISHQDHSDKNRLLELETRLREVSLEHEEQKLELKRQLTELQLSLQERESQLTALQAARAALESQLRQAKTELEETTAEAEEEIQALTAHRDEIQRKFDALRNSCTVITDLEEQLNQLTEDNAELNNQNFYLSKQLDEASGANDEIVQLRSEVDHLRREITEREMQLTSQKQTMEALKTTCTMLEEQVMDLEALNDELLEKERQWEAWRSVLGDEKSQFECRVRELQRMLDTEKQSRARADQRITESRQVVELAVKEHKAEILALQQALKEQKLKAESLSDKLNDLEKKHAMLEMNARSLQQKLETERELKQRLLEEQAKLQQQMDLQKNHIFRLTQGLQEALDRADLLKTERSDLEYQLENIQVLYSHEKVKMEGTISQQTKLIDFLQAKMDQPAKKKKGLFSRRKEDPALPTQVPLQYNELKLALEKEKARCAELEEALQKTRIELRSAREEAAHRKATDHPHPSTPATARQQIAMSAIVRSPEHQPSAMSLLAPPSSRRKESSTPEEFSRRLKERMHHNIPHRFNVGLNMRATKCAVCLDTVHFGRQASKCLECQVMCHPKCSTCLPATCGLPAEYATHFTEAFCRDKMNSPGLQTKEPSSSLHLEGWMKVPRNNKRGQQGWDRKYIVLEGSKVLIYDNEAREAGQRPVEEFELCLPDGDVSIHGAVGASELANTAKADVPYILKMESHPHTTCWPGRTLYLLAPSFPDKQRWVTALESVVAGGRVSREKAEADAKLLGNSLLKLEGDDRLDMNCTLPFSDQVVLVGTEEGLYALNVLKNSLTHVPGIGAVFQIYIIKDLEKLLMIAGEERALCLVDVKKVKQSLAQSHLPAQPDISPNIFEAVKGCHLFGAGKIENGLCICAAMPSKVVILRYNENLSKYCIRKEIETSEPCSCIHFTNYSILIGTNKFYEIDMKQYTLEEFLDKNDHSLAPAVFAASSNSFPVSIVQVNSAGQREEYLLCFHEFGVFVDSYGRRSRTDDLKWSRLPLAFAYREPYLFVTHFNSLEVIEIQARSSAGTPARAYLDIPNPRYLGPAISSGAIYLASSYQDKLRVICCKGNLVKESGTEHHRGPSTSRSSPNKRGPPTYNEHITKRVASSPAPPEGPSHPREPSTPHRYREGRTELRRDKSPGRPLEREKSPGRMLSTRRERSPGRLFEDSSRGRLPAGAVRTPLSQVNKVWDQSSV
ASSAY TEXT: Binding affinity to recombinant full-length N-terminal His-FLAG-GST-tagged CIT (unknown origin) (1 to 449 residues) expressed in baculovirus infected Sf9 insect cells incubated for 1 hr by TR-FRET assay
Examples of molecules with documented pKd follow.
pKd here is simply -log10 of the concentration when that concentration is written in mol/L.

CO[C@@H]1[C@H](N(C)CCOCCOCCOCCNC(=O)CCC2=[N+]3C(=Cc4c(C)cc(C)n4[B-]3(F)F)C=C2)C[C@H]2O[C@]1(C)n1c3ccccc3c3c4c(c5c6ccccc6n2c5c31)C(=O)NC4; 6.15

Req: Fill in: pKd of "CO[C@@H]1[C@H](NCCOCCOCCOCCNC(=O)CCC2=[N+]3C(=Cc4c(C)cc(C)n4[B-]3(F)F)C=C2)C[C@H]2O[C@]1(C)n1c3ccccc3c3c4c(c5c6ccccc6n2c5c31)C(=O)NC4" is ___
Resp: 6.13

====

TESTED SYSTEM: Protein kinase C delta type (Homo sapiens)
Sequence (Q05655 whole entry): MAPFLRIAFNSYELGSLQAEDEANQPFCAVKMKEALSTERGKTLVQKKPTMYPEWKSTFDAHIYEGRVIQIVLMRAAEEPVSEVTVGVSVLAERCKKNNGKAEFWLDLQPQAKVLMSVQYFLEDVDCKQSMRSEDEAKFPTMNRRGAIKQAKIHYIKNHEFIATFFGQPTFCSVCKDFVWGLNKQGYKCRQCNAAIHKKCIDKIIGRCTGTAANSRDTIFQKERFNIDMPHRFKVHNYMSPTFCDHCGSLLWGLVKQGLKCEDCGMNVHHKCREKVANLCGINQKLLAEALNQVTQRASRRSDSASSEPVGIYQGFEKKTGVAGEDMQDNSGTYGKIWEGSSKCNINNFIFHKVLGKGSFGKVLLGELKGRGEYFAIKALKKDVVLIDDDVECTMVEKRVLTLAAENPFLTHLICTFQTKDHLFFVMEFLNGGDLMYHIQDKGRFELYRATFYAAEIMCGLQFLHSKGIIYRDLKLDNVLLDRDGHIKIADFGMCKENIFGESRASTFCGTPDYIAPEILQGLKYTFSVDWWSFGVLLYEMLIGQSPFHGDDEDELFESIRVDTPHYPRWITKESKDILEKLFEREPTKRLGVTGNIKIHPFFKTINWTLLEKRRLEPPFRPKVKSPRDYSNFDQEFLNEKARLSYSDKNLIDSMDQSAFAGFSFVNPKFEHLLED
ASSAY TEXT: Binding affinity to recombinant human full length N-terminal GST-tagged PRKCD expressed in baculovirus expression system using PKC peptide as substrate incubated for 1 hr by TR-FRET assay
Collected pKd values appear next to each entry.
On this scale, pKd is minus log10 of a concentration expressed in M (mol/L).

CO[C@@H]1[C@H](N(C)CCOCCOCCOCCNC(=O)CCC2=[N+]3C(=Cc4c(C)cc(C)n4[B-]3(F)F)C=C2)C[C@H]2O[C@]1(C)n1c3ccccc3c3c4c(c5c6ccccc6n2c5c31)C(=O)NC4; 8.52

# input for lookup
Req: Param item = "CO[C@@H]1[C@H](NCCOCCOCCOCCNC(=O)CCC2=[N+]3C(=Cc4c(C)cc(C)n4[B-]3(F)F)C=C2)C[C@H]2O[C@]1(C)n1c3ccccc3c3c4c(c5c6ccccc6n2c5c31)C(=O)NC4" ; retrieve measured pKd.
Resp: 7.89
